Listed compounds paired with reported composite z-score
- Assay Procedure: binders of probe aFGF2 on microarray, primary screen, stem cell growth factor project, biochemical, small-molecule microarray, fluorescence 635/667 (AID 1067);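 note: measures binding of biotinylated aFGF2 protein to printed compounds on slides; z-score merges feature fluorescence and signal-to-noise across triplicate slides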
- Assay Setup: higher = more signal
Result Type: composite z-score

INSERT INTO assay_data (structure_as_smiles, obs_value) VALUES
  ('COC(=O)c1c(CC[C@@H](CO)NC(=O)N[C@H](Cn2cc(Cc3ccccc3)nn2)C(C)C)oc(C(C)=O)c1C(=O)OC', -0.119),
  ('O=C1C[C@]2(c3ccc([N+](=O)[O-])cc3)C(=O)N(CCN3CCOCC3)c3cc(CO)ccc3[C@H]2N1C1CCCCC1', -0.162),
  ('CO[C@H]1O[C@H](CO)[C@@H](OC(=O)Nc2ccc(Br)cc2)[C@H](OC(=O)c2cc3ccccc3[nH]2)[C@H]1OC(=O)c1cc2ccccc2[nH]1', -0.11),
  ('COC(=O)[C@@]1(Cc2ccc(F)cc2)[C@H]2c3cc(C(=O)N4CCCC4)n(Cc4ccc(C)o4)c3C[C@H]2CN1C(=O)c1ccccc1', 0.157),
  ('COC(=O)[C@@]1(Cc2ccccc2)[C@H]2c3cc(C(=O)N4CCCC4)n(CC4CC4)c3C[C@H]2CN1C(=O)c1ccccc1', 0.424),
  ('O=C1c2ccccc2[C@@]2(Cc3ccccc3N(CC(F)(F)F)C2=O)[C@H](c2ccc(CO)cc2)N1Cc1ccccc1Cl', -0.147),
  ('[N-]=[N+]=NCc1ccccc1[C@@H]1OC(c2ccc(OCCCO)cc2)=N[C@]1(CCS(=O)(=O)c1ccccc1)C(=O)NCc1ccccc1', 0.289);

Where these numbers come from: PubChem BioAssay
